System: Escherichia coli TOP10;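 further: peptides expressed intracellularly from a pBAD plasmid library in pooled LB shake-flask culture, induced with 0.3% L-arabinose, DNA abundance read by NGS, three biological replicates, DESeq2 with apeglm shrinkage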
Assay: shrunken log2 fold change of peptide-encoding DNA abundance (4.5 h post-induction vs induction); higher = less antimicrobial activity (less host growth inhibition)
Conditions: time post-induction: 4.5 h; library: site-saturation at positions 5, 18, 19, 20

QUERY SEQUENCE: RRIRYRPPRLPRPRPRPEVSPRP
shrunken log2 fold change: -0.117
//
QUERY SEQUENCE: RRIRWRPPRLPRPRPRPYWTPRP
shrunken log2 fold change: -0.175
//
QUERY SEQUENCE: RRIRCRPPRLPRPRPRPNGCPRP
shrunken log2 fold change: -0.0116
//
QUERY SEQUENCE: RRIRCRPPRLPRPRPRPTNVPRP
shrunken log2 fold change: -0.154
//
QUERY SEQUENCE: RRIRTRPPRLPRPRPRPKWAPRP
shrunken log2 fold change: 0.0541
//
QUERY SEQUENCE: RRIRIRPPRLPRPRPRPQHPPRP
shrunken log2 fold change: -0.176
//
QUERY SEQUENCE: RRIRHRPPRLPRPRPRPDAYPRP
shrunken log2 fold change: 0.027
//
QUERY SEQUENCE: RRIRARPPRLPRPRPRPLLYPRP
shrunken log2 fold change: 0.09
//
QUERY SEQUENCE: RRIRKRPPRLPRPRPRPHDLPRP
shrunken log2 fold change: 0.00698
//
QUERY SEQUENCE: RRIRQRPPRLPRPRPRPCVIPRP
shrunken log2 fold change: -0.409
//
QUERY SEQUENCE: RRIRSRPPRLPRPRPRPCNEPRP
shrunken log2 fold change: -1.09
//
QUERY SEQUENCE: RRIRIRPPRLPRPRPRPFLHPRP
shrunken log2 fold change: -0.787
//
QUERY SEQUENCE: RRIRGRPPRLPRPRPRPVYKPRP
shrunken log2 fold change: 0.0688
//
QUERY SEQUENCE: RRIRTRPPRLPRPRPRPVLNPRP
shrunken log2 fold change: -0.269
//
QUERY SEQUENCE: RRIRKRPPRLPRPRPRPGKSPRP
shrunken log2 fold change: 0.0157
//
QUERY SEQUENCE: RRIRVRPPRLPRPRPRPTIVPRP
shrunken log2 fold change: -0.497
//
QUERY SEQUENCE: RRIRQRPPRLPRPRPRPVYRPRP
shrunken log2 fold change: -0.308
//
QUERY SEQUENCE: RRIRWRPPRLPRPRPRPSKMPRP
shrunken log2 fold change: -0.0978
//
QUERY SEQUENCE: RRIRRRPPRLPRPRPRPYFNPRP
shrunken log2 fold change: -0.2
//
QUERY SEQUENCE: RRIRSRPPRLPRPRPRPYVQPRP
shrunken log2 fold change: -0.024
//
QUERY SEQUENCE: RRIRFRPPRLPRPRPRPLGLPRP
shrunken log2 fold change: -0.0983
//
QUERY SEQUENCE: RRIRHRPPRLPRPRPRPNSDPRP
shrunken log2 fold change: -0.0908
//
QUERY SEQUENCE: RRIRMRPPRLPRPRPRPARCPRP
shrunken log2 fold change: 1.16
//
QUERY SEQUENCE: RRIRQRPPRLPRPRPRPEKTPRP
shrunken log2 fold change: -0.0176
//
QUERY SEQUENCE: RRIRVRPPRLPRPRPRPHERPRP
shrunken log2 fold change: -0.13
//
QUERY SEQUENCE: RRIRIRPPRLPRPRPRPDHGPRP
shrunken log2 fold change: 0.0143
//
QUERY SEQUENCE: RRIRIRPPRLPRPRPRPCNFPRP
shrunken log2 fold change: -0.061
//
QUERY SEQUENCE: RRIRHRPPRLPRPRPRPANFPRP
shrunken log2 fold change: -0.0325
//
QUERY SEQUENCE: RRIRLRPPRLPRPRPRPGKVPRP
shrunken log2 fold change: -0.0116
//
QUERY SEQUENCE: RRIRIRPPRLPRPRPRPIGSPRP
shrunken log2 fold change: -0.0175
//
QUERY SEQUENCE: RRIRHRPPRLPRPRPRPHHYPRP
shrunken log2 fold change: -0.533
//
QUERY SEQUENCE: RRIRFRPPRLPRPRPRPEAVPRP
shrunken log2 fold change: 0.323
//
QUERY SEQUENCE: RRIRWRPPRLPRPRPRPDVWPRP
shrunken log2 fold change: 0.373
//
QUERY SEQUENCE: RRIRMRPPRLPRPRPRPSSSPRP
shrunken log2 fold change: 0.0411
//
QUERY SEQUENCE: RRIRLRPPRLPRPRPRPVTMPRP
shrunken log2 fold change: -0.195
//
QUERY SEQUENCE: RRIRDRPPRLPRPRPRPHTMPRP
shrunken log2 fold change: -0.863
//
QUERY SEQUENCE: RRIRSRPPRLPRPRPRPFVLPRP
shrunken log2 fold change: -0.215
//
QUERY SEQUENCE: RRIRPRPPRLPRPRPRPNFAPRP
shrunken log2 fold change: 0.445
//
QUERY SEQUENCE: RRIRFRPPRLPRPRPRPWWLPRP
shrunken log2 fold change: -0.0533
//
QUERY SEQUENCE: RRIRFRPPRLPRPRPRPIRFPRP
shrunken log2 fold change: -0.233
//
QUERY SEQUENCE: RRIRERPPRLPRPRPRPYYIPRP
shrunken log2 fold change: -0.262
//
QUERY SEQUENCE: RRIRLRPPRLPRPRPRPAKDPRP
shrunken log2 fold change: -0.136
//
QUERY SEQUENCE: RRIRCRPPRLPRPRPRPYERPRP
shrunken log2 fold change: -0.133
//
QUERY SEQUENCE: RRIRPRPPRLPRPRPRPFFQPRP
shrunken log2 fold change: 0.0612
//
QUERY SEQUENCE: RRIRDRPPRLPRPRPRPNDCPRP
shrunken log2 fold change: -0.0197
//
QUERY SEQUENCE: RRIRDRPPRLPRPRPRPHTVPRP
shrunken log2 fold change: -0.0379
//
QUERY SEQUENCE: RRIRRRPPRLPRPRPRPWSWPRP
shrunken log2 fold change: -0.0122
//
QUERY SEQUENCE: RRIRARPPRLPRPRPRPKNKPRP
shrunken log2 fold change: 0.216
//
QUERY SEQUENCE: RRIRHRPPRLPRPRPRPELHPRP
shrunken log2 fold change: 0.00184
//
QUERY SEQUENCE: RRIRFRPPRLPRPRPRPICWPRP
shrunken log2 fold change: -0.134
//
QUERY SEQUENCE: RRIRFRPPRLPRPRPRPIRAPRP
shrunken log2 fold change: -0.0742
//
QUERY SEQUENCE: RRIRFRPPRLPRPRPRPWNKPRP
shrunken log2 fold change: -0.722
//
QUERY SEQUENCE: RRIRDRPPRLPRPRPRPADMPRP
shrunken log2 fold change: -0.119
//
QUERY SEQUENCE: RRIRNRPPRLPRPRPRPAVPPRP
shrunken log2 fold change: -0.165
